Reported log10 Kb values are given for each entry in this list.
# SYSTEM UNDER TEST: Serotonin 3 (5-HT3) receptor (Rattus norvegicus, UniProt P35563+Q9JJ16)
# Sequence (P35563 whole entry): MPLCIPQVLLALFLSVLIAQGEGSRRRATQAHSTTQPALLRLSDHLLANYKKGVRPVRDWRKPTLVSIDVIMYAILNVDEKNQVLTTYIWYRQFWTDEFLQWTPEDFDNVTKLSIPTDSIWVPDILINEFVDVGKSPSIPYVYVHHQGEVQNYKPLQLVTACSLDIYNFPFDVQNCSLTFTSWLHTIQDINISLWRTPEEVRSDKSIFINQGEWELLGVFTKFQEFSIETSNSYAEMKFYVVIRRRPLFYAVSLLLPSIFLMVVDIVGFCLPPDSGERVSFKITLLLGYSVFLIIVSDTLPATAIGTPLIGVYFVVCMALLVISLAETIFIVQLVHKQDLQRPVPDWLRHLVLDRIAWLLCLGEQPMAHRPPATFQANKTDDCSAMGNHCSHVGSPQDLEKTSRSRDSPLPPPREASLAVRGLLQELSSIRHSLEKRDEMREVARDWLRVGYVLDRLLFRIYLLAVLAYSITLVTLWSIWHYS
# Sequence (Q9JJ16 whole entry): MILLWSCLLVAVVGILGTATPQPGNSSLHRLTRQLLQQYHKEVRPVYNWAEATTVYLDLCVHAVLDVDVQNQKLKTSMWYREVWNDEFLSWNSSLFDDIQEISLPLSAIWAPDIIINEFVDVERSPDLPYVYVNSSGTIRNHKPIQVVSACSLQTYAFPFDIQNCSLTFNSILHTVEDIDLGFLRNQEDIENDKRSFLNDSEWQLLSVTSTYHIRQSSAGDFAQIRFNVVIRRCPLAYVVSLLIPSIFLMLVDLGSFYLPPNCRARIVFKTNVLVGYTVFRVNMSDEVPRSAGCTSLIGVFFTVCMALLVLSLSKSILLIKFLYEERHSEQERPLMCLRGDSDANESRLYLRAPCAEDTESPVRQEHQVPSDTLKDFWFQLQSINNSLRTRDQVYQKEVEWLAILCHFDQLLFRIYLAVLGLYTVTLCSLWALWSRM
# METHOD NOTES: In vitro antagonism of the 5-HT-3 receptor determined by inhibition of 5-HT-induced depolarization of the isolated rat vagus nerve.
# Format: functional
# SETUP CONDITIONS: read-out: pA2 (converted)
METRIC: log10 Kb (log10 of the value in nM)

[[record]]
compound = "COc1ccccc1C(=O)NC(=O)N[C@@H]1CN2CCC1CC2"
metric = "log10 Kb"
quantitative_readout = 1.75

[[record]]
compound = "COc1ccccc1C(=O)NC(=O)NC1CN2CCC1CC2 (stereo not given)"
metric = "log10 Kb"
quantitative_readout = 1.00

[[record]]
compound = "COc1ccccc1C(=O)NC(=O)NC1CC2CCCC(C1)N2C (stereo not given)"
metric = "log10 Kb"
quantitative_readout = 1.60

[[record]]
compound = "CN1CCC(OC(=O)NC(=O)c2cc(Cl)cc(Cl)c2)CC1"
metric = "log10 Kb"
quantitative_readout = 2.10

[[record]]
compound = "CN1[C@@H]2CC[C@H]1C[C@@H](OC(=O)c1cc(Cl)cc(Cl)c1)C2"
metric = "log10 Kb"
quantitative_readout = 1.20


* * *

# SYSTEM UNDER TEST: Serotonin 3 (5-HT3) receptor (Rattus norvegicus, UniProt P35563+Q9JJ16)
# METHOD NOTES: In vitro antagonism of the 5-HT-3 receptor determined by inhibition of 5-HT-induced depolarization of the isolated rat vagus nerve.
# Format: functional
# SETUP CONDITIONS: read-out: pA2 (converted)
METRIC: Kb (nM)

[[record]]
compound = "Cc1ccccc1C(=O)NC(=O)NC1CN2CCC1CC2 (stereo unspecified)"
readout_relation = "="
quantitative_readout = 251

[[record]]
compound = "CN1C2CCC1CC(NC(=O)NC(=O)c1ccccc1O)C2 (stereo unspecified)"
readout_relation = "="
quantitative_readout = 12.6

[[record]]
compound = "CC(C)CCOc1ccccc1C(=O)NC(=O)NC1CC2CCC(C1)N2C (stereo unspecified)"
readout_relation = "="
quantitative_readout = 6.31

[[record]]
compound = "COc1ccccc1C(=O)NC(=O)OC1CC2CCC(C1)N2C (stereo unspecified)"
readout_relation = "="
quantitative_readout = 17

[[record]]
compound = "CC(C)COc1ccccc1C(=O)NC(=O)NC1CC2CCC(C1)N2C (stereo unspecified)"
readout_relation = "="
quantitative_readout = 3.16

[[record]]
compound = "COc1ccccc1C(=O)NC(=O)OC1CN2CCC1CC2 (stereo unspecified)"
readout_relation = "="
quantitative_readout = 36.3

[[record]]
compound = "CN1C2CCC1CC(NC(=O)NC(=O)c1ccccc1OCC1CC1)C2 (stereo unspecified)"
readout_relation = "="
quantitative_readout = 1.26

[[record]]
compound = "COc1cccc(OC)c1C(=O)NC(=O)NC1CN2CCC1CC2 (stereo unspecified)"
readout_relation = ">"
quantitative_readout = 316

[[record]]
compound = "COc1cc(N)c(Cl)cc1C(=O)NC(=O)NC1CC2CCC(C1)N2C (stereo unspecified)"
readout_relation = "="
quantitative_readout = 79.4

[[record]]
compound = "CCOc1ccccc1C(=O)NC(=O)NC1CC2CCC(C1)N2C (stereo unspecified)"
readout_relation = "="
quantitative_readout = 2.04

[[record]]
compound = "O=C(NC(=O)c1cc(Cl)cc(Cl)c1)NC1CN2CCC1CC2 (stereo unspecified)"
readout_relation = "="
quantitative_readout = 200

[[record]]
compound = "COc1cc(N)ccc1C(=O)NC(=O)NC1CC2CCC(C1)N2C (stereo unspecified)"
readout_relation = "="
quantitative_readout = 158

[[record]]
compound = "COc1cc(N)c(Cl)cc1C(=O)NC1CN2CCC1CC2 (stereo unspecified) [ZACOPRIDE]"
readout_relation = "="
quantitative_readout = 0.794

[[record]]
compound = "CCCOc1ccccc1C(=O)NC(=O)NC1CC2CCC(C1)N2C (stereo unspecified)"
readout_relation = "="
quantitative_readout = 1.26

[[record]]
compound = "COc1ccc(C(=O)NC(=O)NC2CN3CCC2CC3)cc1 (stereo unspecified)"
readout_relation = ">"
quantitative_readout = 316

[[record]]
compound = "COc1ccc(Cl)cc1C(=O)NC(=O)NC1CC2CCC(C1)N2C (stereo unspecified)"
readout_relation = "="
quantitative_readout = 46.8

[[record]]
compound = "O=C(NC(=O)c1ccccc1F)NC1CN2CCC1CC2 (stereo unspecified)"
readout_relation = ">"
quantitative_readout = 316

[[record]]
compound = "COc1ccccc1C(=O)NC(=O)N[C@H]1CN2CCC1CC2"
readout_relation = "="
quantitative_readout = 7.08

[[record]]
compound = "COc1cc([N+](=O)[O-])ccc1C(=O)NC(=O)NC1CC2CCC(C1)N2C (stereo unspecified)"
readout_relation = ">"
quantitative_readout = 100

